- Tested on: Citrobacter diversus
- assay-text: MIC against Gram-negative bacteria: Citrobacter diversus
- Format: cell-based
- condition: C. diversus; 10 h cultivation at 37° C.; 5×10^5 CFU/mL
- Procedure: 1. Gram-negative bacteria, such as E. coli BL21, Pseudomonas aeruginosa, Klebsiella pneumonia, Enterobacter cloacae, Aeromonas hydrophila, Citrobacter diversus, Moraxella catarrhalis, Proteus mirabilis, Proteus vulgaris, Serratia marcescens, etc were streaked on solid LB medium and cultured respectively. Then, typical clones were picked, inoculated into common liquid LB medium respectively, and cultured at 37° C. with shaking at 185 rpm until the McFarland specific turbidity was 0.5. […]
readout: MIC (μg/mL) C. diversus (µg/mL)
All answers are understood in µg/mL, so give the number only.

Take a look at these entries with their results.
PRT219 (DIDECRTSSYLCQYQCVNEPGKFSCMCPQGYQVVRSRTCQ; listed as Homo sapiens) ... 12.5
PRT185 (ELSECDSNPCRNGGSCKDQEDGYHCLCPPGYYGLHCE; listed as Homo sapiens) ... 12.5

Query :: # input substance: PRT824 (YGPGCEQLCGCLNGGSCDAATGACRCPTGFLGTDCN; listed as Homo sapiens) ; wanted: its MIC (μg/mL) C. diversus
Result :: 50

Query :: Also PRT751 (LCATGDHDCEQVCISSPGSYTCACHEGFTLNSDGKTCN; listed as Homo sapiens) , if possible.
Result :: 12.5

###

Listed substances paired with reported MIC against P. mirabilis
- System: Proteus mirabilis
- assay-text: MIC against Gram-negative bacteria: Proteus mirabilis
- Type: cell-based
- condition: Proteus mirabilis; 96-well plate, 5×10^5 CFU/mL, 37° C., 10 h
All answers are understood in µg/mL, so give the number only.

PRT1209 (ATEDCASNPCQNGGVCNPSPAGGYYCKCSALYIGTHCE; listed as Homo sapiens) ... 12.5
PRT1319 (SMGDCGPTGLAQHCHLHARCVSQEGVARCRCLDGFEGDGFS; listed as Homo sapiens) ... 25
PRT1285 (NQDDCRDHRCQNGAQCMDEVNSYSCLCAEGYSGQLCE; listed as Homo sapiens) ... 50

The record that follows has no MIC against P. mirabilis shown yet.
Query :: # input substance: PRT1217 (EITACFPNPCRNGGSCDPIGNTFICNCKAGLTGVTCE; listed as Homo sapiens) ; wanted: its MIC against P. mirabilis
Result :: 50

###

- System: Pseudomonas aeruginosa
- assay-text: MIC against Gram-negative bacteria: Pseudomonas aeruginosa
- Type: cell-based
- condition: Pseudomonas aeruginosa; 96-well plate, 5×10^5 CFU/mL, 37° C., 10 h
readout: MIC (μg/mL) P. aeruginosa (µg/mL)
All answers are understood in µg/mL, so give the number only.

Take a look at these entries with their results.
PRT27 (NACASGPCPPHADCRDLWQTFSCTCQPGYYGPGCV; listed as Homo sapiens) ... 50
PRT41 (CDRPCVNGGRCNPGTGQCVCPAGWVGEQC; listed as Homo sapiens) ... 25
PRT122 (CAPCQGNGVPVLKGSRCDCICPVGSQGLACE; listed as Homo sapiens) ... 12.5

Query :: # input substance: PRT45 (SINSCPNNCSGHGKCTTSVSVPSQVYCECDKYWKGEACD; listed as Homo sapiens) ; wanted: its MIC (μg/mL) P. aeruginosa
Result :: 12.5

Query :: Also PRT6 (TRKLCSLDNGDCDQFCHEEQNSVVCSCARGYTLADNGKACI; listed as Homo sapiens) , if possible.
Result :: 25

Query :: Also PRT84 (EAGRCVPGVCRNGGTCTDAPNGGFRCQCPAGGAFEGPRCE; listed as Homo sapiens) , if possible.
Result :: 12.5

Query :: Also PRT131 (AGHCSTYGHLCRNGGRCREKRRGVTCDCAFSAYDGPFCS; listed as Homo sapiens) , if possible.
Result :: 12.5

Query :: Also PRT24 (ELDLCYSNPCRNGGACARREGGYTCVCRPRFTGEDCE; listed as Homo sapiens) , if possible.
Result :: 12.5

###

Listed substances paired with reported MIC against E. cloacae
- System: Enterobacter cloacae
- assay-text: MIC against Gram-negative bacteria: Enterobacter cloacae
- Format: cell-based
- condition: Enterobacter cloacae; 5×10^5 CFU/mL; 10 h cultivation at 37° C.
- Protocol: 1. Gram-negative bacteria, such as E. coli BL21, Pseudomonas aeruginosa, Klebsiella pneumonia, Enterobacter cloacae, Aeromonas hydrophila, Citrobacter diversus, Moraxella catarrhalis, Proteus mirabilis, Proteus vulgaris, Serratia marcescens, etc were streaked on solid LB medium and cultured respectively. Then, typical clones were picked, inoculated into common liquid LB medium respectively, and cultured at 37° C. with shaking at 185 rpm until the McFarland specific turbidity was 0.5. […]
All answers are understood in µg/mL, so give the number only.

Take a look at these entries with their results.
PRT1380 (SQRSCPRGCSQRGRCEGGRCVCDPGYTGDDC; listed as Homo sapiens) ... 12.5
PRT1382 (GVRSCPRGCSQRGRCKDGRCVCDPGYTGEDC; listed as Homo sapiens) ... 50
PRT1412 (RASCPVLCSGNGQYMKGRCLCHSGWKGAECD; listed as Homo sapiens) ... 25
PRT1483 (DIDECVTSSCEGHCVNTEGGFVCECGPGMQLSADRHSCQ; listed as Homo sapiens) ... 12.5

Query :: # input substance: PRT1478 (GGSPCISQPCLHNGSCQDSIWGYTCTCSPGYEGSNCE; listed as Homo sapiens) ; wanted: its MIC against E. cloacae
Result :: 12.5

Query :: Also PRT1378 (AIQTCPGDCRGRGECHDGSCVCKDGYAGEDCG; listed as Homo sapiens) , if possible.
Result :: 12.5

Query :: Also PRT1430 (DINECAHADPCFPGSSCINTMPGFHCEACPRGYKGTQVS; listed as Homo sapiens) , if possible.
Result :: 25

###

- Tested on: E. coli BL21
- assay-text: MIC against Gram-negative bacteria: E. coli BL21
- Assay type: cell-based
- condition: E. coli BL21; 10 h cultivation at 37° C.
readout: MIC (µg/mL)
All answers are understood in µg/mL, so give the number only.

PRT900 (VLAPCAPSPCRNGGECRQSEDYESFSCVCPTGWQGQTCE; listed as Homo sapiens) ... 25
PRT912 (DVNECLSNPCDARGTQNCVQRVNDFHCECRAGHTGRRCE; listed as Homo sapiens) ... 12.5
PRT967 (ARDACESQPCRAGGTCSSDGMGFHCTCPPGVQGRQCE; listed as Homo sapiens) ... 12.5

Query :: # input substance: PRT910 (EIDECLSHPCQNGGTCLDLPNTYKCSCPRGTQGVHCE; listed as Homo sapiens) ; wanted: its MIC
Result :: 25

Query :: Also PRT1021 (LQNPCYIGTHGCDTNAACRPGPRTQFTCECSIGFRGDGRTCY; listed as Homo sapiens) , if possible.
Result :: 12.5

Query :: Also PRT987 (NVDDCPGHRCLNGGTCVDGVNTYNCQCPPEWTGQFCT; listed as Homo sapiens) , if possible.
Result :: 12.5

Query :: Also PRT921 (NIDDCASAACFHGATCHDRVASFYCECPHGRTGLLCH; listed as Homo sapiens) , if possible.
Result :: 12.5

###

Listed substances paired with reported MIC against M. catarrhalis
- System: Moraxella catarrhalis
- assay-text: MIC against Gram-negative bacteria: Moraxella catarrhalis
- Assay type: cell-based
- condition: Moraxella catarrhalis; 5×10^5 CFU/mL; 10 h cultivation at 37° C.
All answers are understood in µg/mL, so give the number only.

Query :: # input substance: PRT1388 (RDSCPVLCGGNGEYEKGHCVCRHGWKGPECDV; listed as Homo sapiens) ; wanted: its MIC against M. catarrhalis
Result :: 25

Query :: Also PRT1432 (PARTCHSPAHSPCHIHAHCLFERNGAVSCQCNVGWAGNGNVCG; listed as Homo sapiens) , if possible.
Result :: 25

###

Listed substances paired with reported MIC against P. vulgaris
- System: Proteus vulgaris
- assay-text: MIC against Gram-negative bacteria: Proteus vulgaris
- Format: cell-based
- condition: Proteus vulgaris; 5×10^5 CFU/mL; 10 h cultivation at 37° C.
Reply with the number, then its unit.

PRT1458 (CNCHLSGALNETCHLVTGQCFCKQFVTGSKCDACVPSASHLDVNNLLGCSK; listed as Homo sapiens) ... 25 µg/mL
PRT1370 (GVRSCPGDCRGRGRCESGRCMCWPGYTGRDC; listed as Homo sapiens) ... 25 µg/mL
PRT1381 (GMRSCPRGCSQRGRCENGRCVCNPGYTGEDC; listed as Homo sapiens) ... 50 µg/mL
PRT1368 (EKRCPGDCSGHGFCDTGECYCEEGFTGLDCA; listed as Homo sapiens) ... 12.5 µg/mL
PRT1478 (GGSPCISQPCLHNGSCQDSIWGYTCTCSPGYEGSNCE; listed as Homo sapiens) ... 25 µg/mL
PRT1449 (ACAPGHFGADCRLQCQCQNGGTCDRFSGCVCPSGWHGVHCE; listed as Homo sapiens) ... 12.5 µg/mL

Query :: # input substance: PRT1484 (DTDECLGTPCQQRCKNSIGSYKCSCRTGFHLHGNRHSCV; listed as Homo sapiens) ; wanted: its MIC against P. vulgaris
Result :: 12.5 µg/mL

Query :: Also PRT1401 (VCHPRCIEHGTCKDGKCECREGWNGEHCT; listed as Homo sapiens) , if possible.
Result :: 25 µg/mL
